The values you see were collected from PubChem BioAssay (NCATS).

# procedure_text: qHTS assay to identify small molecule inhibitors of chordoma cells - UCH-1 (AID 1259355); note: nearly all actives have a fitted effect of over 55% in size
# experimental_conditions: UCH-1 chordoma viability, CellTiter-Glo, 48 h, combination; series mostly up to 46.1 µM
Results filed as inconclusive are left out. Active and inactive are the calls of the source. Calls come from the whole dose curve; as a rule, active = well fitted cell-killing curve with a large enough effect; inconclusive = small, poorly fitted or top-dose-only effect, or effect the other way; inactive = no such curve, though single readings can be large or run the other way.
Entry note: the call must match one of active, inactive

For orientation, consider the following solved cases.
Exam item: Recorded call for `O=[N+]([O-])c1ccccc1` ?
Marked response: inactive

Exam item: Give the logged outcome of this assay for the following molecule: `Clc1ccc(C2(Cn3cncn3)OCCO2)c(Cl)c1`
Marked response: inactive

Exam item: State the result this test recorded for O=C1C2CC=CCC2C(=O)N1SC(Cl)(Cl)Cl (stereo unspecified) .
Marked response: active

***
Exam item: In this assay, the call recorded for CNc1ccc(C(=O)CC(O)CCC(C)C2OC(=O)CC(O)CC(=O)CC(O)CC(O)CC(O)CC(O)CC3(O)CC(O)C(C(=O)OC)C(CC(O[C@@H]4O[C@H](C)[C@@H](O)[C@H](N)[C@@H]4O)/C=C/C=C/C=C/C=C/C=C/C=C/C=C/C2C)O3)cc1 (stereo partly specified) was what?
Marked response: inactive

Exam item: Hey, what did the test say about `c1ccc(C2(N3CCCC3)CCCCC2)cc1` ?
Marked response: inactive

Exam item: What did this assay record as the result for CNC1(c2ccccc2Cl)CCCCC1=O (stereo unspecified) ?
Marked response: inactive

Exam item: Test call for this molecule, please: `CC(=O)Oc1ccc2c3c1O[C@H]1[C@@H](OC(C)=O)C=C[C@H]4[C@@H](C2)N(C)CC[C@@]341`
Marked response: inactive

Exam item: Hi, sorry to bother you, what did the test record for `CCCCCl` ?
Marked response: inactive

Exam item: Call for entry `S=C=S` :
Marked response: inactive

Exam item: For `[S]=[Sb](=[S])[S][Sb](=[S])=[S]` , which call appears in the assay record?
Marked response: inactive

Exam item: Would you mind telling me which call this test gave Clc1ccc(C(Cn2ccnc2)OCc2csc3c(Cl)cccc23)c(Cl)c1 (stereo unspecified) ?
Marked response: inactive
